Experiment: NCI Yeast Anticancer Drug Screen. Data for the rad50 strain (AID 155)
Settings: S. cerevisiae rad50 strain growth inhibition; at 5.0 µM (retest, dose inferred, filed as 0.5); active compounds read high
About 79,000 compounds went through this panel and 15% of them were active in at least one assay; those are over-represented in the sample as a whole.
Label not satisfied if growth inhibition falls below 10%; label satisfied in every other case.

{"Compound": "CC(C)(C)C(=O)OCC(=O)c1ccc(-c2ccccc2)cc1", "Assigned class": "not satisfied"}
{"Compound": "Nn1c(-c2ccccc2)nn(C(=O)c2ccccc2)c1=O", "Assigned class": "not satisfied"}
{"Compound": "CC(=O)SCC(=O)Nc1ccc(Cl)cc1", "Assigned class": "not satisfied"}
{"Compound": "CN(C)[C@@H]1C(=O)C(C(=O)NCNc2nc3n[nH]nc3c(=O)[nH]2)=C(O)[C@@]2(O)C(=O)C3=C(O)c4c(O)cccc4[C@@](C)(O)[C@H]3C[C@@H]12", "Assigned class": "not satisfied"}
{"Compound": "Cc1cc(Cl)c2c(c1)C(=O)/C(=C/c1ccc(Cl)cc1)O2", "Assigned class": "not satisfied"}

Problem: // inclusive: growth inhibition at least 10%? input: COC(=O)/C=C1/OC(c2ccccc2)=CC1=O
Result: satisfied

Problem: // inclusive: growth inhibition at least 10%? input: CSC(=S)N/N=C\C(C)=N/N=C(N)N
Result: satisfied

Reference source for all entries: PubChem BioAssay (NCI)
